Molecular target: T1, Nrd1_(1-222) (S. cerevisiae, UniProt P53617 1-222)
T1 chain: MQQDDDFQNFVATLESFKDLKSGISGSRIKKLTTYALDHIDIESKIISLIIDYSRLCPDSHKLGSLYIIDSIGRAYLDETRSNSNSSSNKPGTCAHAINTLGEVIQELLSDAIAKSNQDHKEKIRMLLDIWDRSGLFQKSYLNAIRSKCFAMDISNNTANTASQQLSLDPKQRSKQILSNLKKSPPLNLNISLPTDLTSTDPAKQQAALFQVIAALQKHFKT
Experiment: ITC
readout.type: pKd
Remember the convention: pKd equals -log10 of concentration in molar.

Task item: Sample Nrd1 interaction domain of Nab3 (Nab3 191-261) (domain or fragment, S. cerevisiae, UniProt P38996 191-261, looked up, 15N/13C-labelled or unlabelled for NMR; natural abundance for ITC; also called NRID; Nab3 NRID; source: E. coli BL21(DE3), purified (IMAC, TEV digestion, second IMAC, gel filtration); not shown: TxA (E. coli thioredoxin A), N-terminal, cleaved; His6, N-terminal, cleaved) REENDNTHFPTNMENVNYDLLQKQVKYIMDSNMLNLPQFQHLPQEEKMSAILAMLNSNSDTALSVPPHDST — what was its pKd?
Reply: 6.89

Every entry's value here was drawn from paper PMC8761494.
